Hi there, I'd appreciate the recorded IC50 for every entry that follows.
system: TNFα release from THP-1 cells; test: TNFα release from LPS-stimulated THP-1 cells; format: cell-based; conditions: Homo sapiens, THP-1, 18 h, read-out: TNFα (THP-1) IC50 (nM)
Hi! Could you send only the number? It should be in nM, unit omitted.

Entry "CN1[C@@H]2CC[C@H]1C[C@@H](Nc1nccc(-c3c(-c4ccc(F)cc4F)nc4occn34)n1)C2" , IC50 reported as 1.2

Entry Cc1ccccc1-c1nc2occn2c1-c1ccnc(NC2C[C@H]3CC[C@@H](C2)N3C)n1 (stereo partly drawn) , IC50 reported as 23.7

Entry "C[C@H](O)[C@H](CO)Nc1nccc(-c2c(-c3ccc(F)cc3)nc3occn23)n1" , IC50 reported as 6
